Source listed as patent US8686018B2.

biological target: EP4 (Homo sapiens (Human), UniProt P35408); assay: CRE-PLAP reporter assay; settings: SE302 (HEK/293 clone) cells with endogenous EP4, stimulated with 3 ng/mL PGE2 overnight
Sequence (P35408 whole entry): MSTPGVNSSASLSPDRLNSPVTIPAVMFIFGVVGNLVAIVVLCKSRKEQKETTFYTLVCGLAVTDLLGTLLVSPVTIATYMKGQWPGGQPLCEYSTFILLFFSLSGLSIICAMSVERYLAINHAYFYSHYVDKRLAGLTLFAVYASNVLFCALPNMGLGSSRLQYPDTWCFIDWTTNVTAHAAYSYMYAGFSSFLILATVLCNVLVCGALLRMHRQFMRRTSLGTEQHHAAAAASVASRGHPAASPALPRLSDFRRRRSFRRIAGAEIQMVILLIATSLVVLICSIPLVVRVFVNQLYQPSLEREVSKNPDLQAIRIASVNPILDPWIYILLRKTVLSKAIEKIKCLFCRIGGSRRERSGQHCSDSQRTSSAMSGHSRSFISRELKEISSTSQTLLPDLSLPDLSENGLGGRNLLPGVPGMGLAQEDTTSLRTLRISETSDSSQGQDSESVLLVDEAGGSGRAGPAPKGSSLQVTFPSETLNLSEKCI
pIC50: −log10 of the molar value.
measuredAttribute: pIC50

{"columns": ["molecule", "pIC50"],
 "data": [
  ["C[C@H](NC(=O)c1c(C(F)F)nn(C)c1Oc1cccc(C(F)F)c1)c1ccc(C(=O)O)cc1 [ER-887480-00]", 7.29],
  ["C[C@H](NC(=O)c1c(C(F)(F)F)nn(C)c1Oc1cccc(F)c1)c1ccc(C(=O)O)cc1 [ER-886072-00]", 6.88],
  ["Cc1nn(C)c(Oc2ccc(Cl)c(Cl)c2)c1C(=O)N[C@@H](C)c1ccc(C(=O)O)cc1 [ER-885716-00]", 7.04],
  ["Cc1nn(C)c(Oc2cccc(F)c2)c1C(=O)N[C@@H](C)c1ccc(C(=O)O)cc1 [ER-885717-00]", 6.01]
]}

(a) Cc1nn(C)c(Oc2cc(F)cc(Cl)c2)c1C(=O)N[C@@H](C)c1ccc(C(=O)O)cc1 [ER-886024-00]
(b) Cc1nn(C)c(Oc2cccc(C(F)(F)F)c2)c1C(=O)NC1(c2ccc(C(=O)O)cc2)CC1 [ER-885740-00]
(c) Cc1cc(C)cc(Oc2c(C(=O)N[C@@H](C)c3ccc(C(=O)O)cc3)c(C)nn2C)c1 [ER-886033-00]
(d) Cc1nn(C)c(Oc2cccc(OC(F)(F)F)c2)c1C(=O)N[C@@H](C)c1ccc(C(=O)O)cc1 [ER-886061-00]
(e) C[C@H](NC(=O)c1c(C(F)(F)F)nn(C)c1Oc1ccc(C(F)(F)F)cc1)c1ccc(C(=O)O)cc1 [ER-888365-00]
query: Please produce an ascending ranking of these molecules based on pIC50. Respond with the label ranking, as requested.
result: c, a, d, e, b
